Biological target: T1, TP-51 peptide (human)
T1 construct: Synthetic peptide from Pepscan; also called synthetic TDP-43 peptide (TP-51)
T1 peptide: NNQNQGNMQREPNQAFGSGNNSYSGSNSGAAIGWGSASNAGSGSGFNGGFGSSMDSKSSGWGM
Assay: SPR Biacore 8K, mAb captured by anti-human antibody, TP-51 injected, single-cycle kinetics
recordedMetric: koff
Provide the measurement as a number trailed by its unit.

The value of koff measured for the binder hACI-7069-633B12-Ab1_H32L26 (antibody, V domains shown) VH: EVQLVQSGAEVKKPGATVKISCKVSGFTFTEYSMHWVQQAPGKGLEWMGGINPQNAGTSYNQKFQGRVTITADTSTDTAYMELSSLRSEDTAVYYCARESWGQGTTVTVSS VL: DIVMTQSPLSLPVTPGEPASISCKSSQSLLHSDAKTYLNWLLQKPGQSPQRLIYLVSKLDSRVPDRFSGSGSGTDFTLKISRVEAEDVGVYYCFQGTHFPHTFGQGTKLEIK turned out to be 0.00016 s⁻¹

The value of koff measured for the binder hACI-7069-633B12-Ab1_H33L27 (antibody, V domains shown) VH: EVQLVQSGAEVKKPGATVKISCKVSGFTFTEYSMHWVQQAPGKGLEWMGGINPNNGGTSYNQKFQGRVTITADTSTDTAYMELSSLRSEDTAVYYCARESWGQGTTVTVSS VL: DIVMTQSPLSLPVTPGEPASISCKSSQSLLHSDGKTYLNWLLQKPGQSPQRLIYLVSKLDSRVPDRFSGSGSGTDFTLKISRVEAEDVGVYYCFQGTHFPHTFGQGTKLEIK turned out to be 0.00012 s⁻¹

The value of koff measured for the binder hACI-7069-633B12-Ab1_H28L24 (antibody, V domains shown) VH: EVQLVQSGAEVKKPGATVKISCKVSGFTFTEYSMHWVQQAPGKGLEWMGGINPNNGGTSYNQKFKGRVTITADTSTDTAYMELSSLRSEDTAVYYCARESWGQGTTVTVSS VL: DIVMTQSPLSLPVTPGEPASISCKSSQSLLHSDGKTYLNWLLQKPGQSPQRLIYLVSKLDSRVPDRFSGSGSGTDFTLKISRVEAEDVGVYYCWQGTHFPHTFGQGTKLEIK turned out to be 0.00013 s⁻¹
